Attribution: ChEMBL document CHEMBL5550198

assay: Retention time of the compound by HPLC analysis; type: physicochemical
readout-kind: Retention_time (min)

- compound: "CCN(C[C@@](O)(CNC(=O)c1cnn(-c2ccc(F)cc2)c1N)C(F)(F)F)C(=O)c1c(F)cccc1Cl"
  readout-kind: "Retention_time"
  assay-value: 2.979
- compound: "CCN(C[C@@](O)(CNC(=O)c1cnn(-c2ccc(F)cc2)c1N)C(F)(F)F)C(=O)c1c(Cl)cccc1Cl"
  readout-kind: "Retention_time"
  assay-value: 2.337
- compound: "CCN(C[C@@](O)(CNC(=O)c1cnn(-c2ccc(F)cc2)c1N)C(F)(F)F)C(=O)c1ccccc1Cl"
  readout-kind: "Retention_time"
  assay-value: 2.238
- compound: "CCN(C[C@@](O)(CNC(=O)c1cnn(-c2ccc(F)cc2)c1N)C(F)(F)F)C(=O)c1c(C)cccc1Cl (stereo in doubt; 10b)"
  readout-kind: "Retention_time"
  assay-value: 2.36
